This collection of values is drawn from PubChem BioAssay AID1963965.

test system: 996289-038-R-J1-PDC spheroid viability; test: Anticancer human tumor 996289-038-R-J1-PDC patient-derived colon adenocarcinoma cell line growth inhibition [PI3K]; settings: second compound 0.0316 µM; first compound 0.00949 µM; active compounds read low; spheroids with HUVEC and MSC;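 note: luminescence used as a proxy for viable cell amount; spheroids exposed to compounds for seven days before viability read; percent viability relative to DMSO vehicle control as 100%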
measure name: viability, T/C (%)
One number for each entry, in %.

Worked examples follow.
In [3]: df
Out[3]:
                                   molecule  readout_value
0  Cn1cnc2c(F)c(Nc3ccc(Br)cc3Cl)c(C(=O)NOCCO)cc21 + Cc1nc(NC(=O)N2CCCC2C(N)=O)sc1-c1ccnc(C(C)(C)C(F)(F)F)c1             73
1  Cn1cnc2c(F)c(Nc3ccc(Br)cc3Cl)c(C(=O)NOCCO)cc21 + CC(Nc1ccc2c(c1)OCCn1cc(N3C(=O)OCC3C(F)F)nc1-2)C(N)=O           95.3
2  Cn1cnc2c(F)c(Nc3ccc(Br)cc3Cl)c(C(=O)NOCCO)cc21 + CC(Nc1ncnc2nc[nH]c12)c1cc2cccc(Cl)c2c(=O)n1-c1ccccc1            102

Next up:
I'm curious: which viability, T/C was measured for Cn1cnc2c(F)c(Nc3ccc(Br)cc3Cl)c(C(=O)NOCCO)cc21 + COc1c(OCCCN2CCOCC2)ccc2c3n(c(=NC(=O)c4cnc(N)nc4)nc12)CCN3 tested on 996289-038-R-J1-PDC spheroid viability?;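 note: luminescence used as a proxy for viable cell amount; spheroids exposed to compounds for seven days before viability read; percent viability relative to DMSO vehicle control as 100%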
71.3
